# Tested on: U251 CNS
# assay: NCI tumour cell line growth inhibition, 48 h
Classification field: T = TGI at or over 20 µM; F = TGI under 20 µM.

Kindly determine if TGI recorded for O=C1C(Cl)=C(NCCCN(CCCNC2=C(Cl)C(=O)c3ccccc3C2=O)C2=C(Cl)C(=O)c3ccccc3C2=O)C(=O)c2ccccc21 is above or exactly 20 µM.
F

###

# System: CCRF-CEM leukemia
# assay: NCI tumour cell line growth inhibition, 48 h; in the data active = GI50 below about 0.43 µM; inactive = the rest
Parameter call: string, one of Yes for active, No for inactive

{"columns": ["molecule", "target_under_test", "class_label"],
 "data": [
  ["COc1ccc2c(c1)C(=O)c1c-2n(CCCN(C)C)c(=O)c2cc([N+](=O)[O-])ccc12", "CCRF-CEM leukemia", "Yes"],
  ["CC(=O)c1c(C)c2cnc(Nc3ccc(N4CCNCC4)cn3)nc2n(C2CCCC2)c1=O", "CCRF-CEM leukemia", "No"]
]}

How did this test come out for Cc1cc(N2CCOCC2)nc(NCc2cc(Nc3ccnc4cc(Cl)ccc34)ccc2F)n1 ?
No

What would you report for COc1cnccc1Nc1nc(-c2nn(Cc3c(F)cc(OCCO)cc3F)c3ccccc23)ncc1OC ?
No

Another: COc1ccc2c(c1)/C(=N/OC(C)=O)c1c-2c(OC)nc2ccccc12
No

Same lookup for COC(=O)c1cc(-c2ccc(S(C)(=O)=O)cc2)[nH]c1N/N=C/c1c(Cl)cccc1Cl , please.
No

Next entry: C=C(C)C(=O)Nc1ccc(-c2c(-c3ccc(Oc4nccc(C)n4)c(F)c3)c3c(N)ncnc3n2C)cc1
No

Also need O=C1C(=C([O-])c2ccccc2)C(=O)c2ccccc21.O=C1C(=C([O-])c2ccccc2)C(=O)c2ccccc21.[Ni+2] , thanks.
No

Param item: CN(CCCCCl)P(=O)(OCc1ccc([N+](=O)[O-])o1)OCC1OC(n2cc([N+](=O)[O-])c(=O)[nH]c2=O)CC1O (stereo not given)
No

Please do the same for O=C1Cc2cc(CCN3CCNCC3)c(Cl)cc2N1 as well.
No

Also need CCCCCCCCN=C(NCCCCCCCC)SCc1cccc2ccccc12 , thanks.
No

Do the same for COc1cc(C(=O)n2nc(N)c3c(C)cc(C)nc32)cc(OC)c1OC please
No
